Data credit: patent US20240116946A1

Some compounds, each annotated with its measured pIC50.
- subjectOfTest: recombinant SARS-CoV-2 Main protease (Mpro) (Severe acute respiratory syndrome coronavirus 2 (2019-nCoV) (SARS-CoV-2), UniProt P0DTD1)
- measurementProtocol: Cov Mpro Biochemical IC50 Assay
- measurementParameters: recombinant SARS-CoV-2 Mpro, fluorogenic peptide substrate; read-out: MPro IC50
pIC50: −log10 of the molar value.

# compound, pIC50
data = [
    ("N#Cc1ccccc1-c1ccc2c(=O)n(-c3cncc4ccccc34)c(=O)[nH]c2c1 [Example 65]", 6.96),
    ("N#Cc1cc(-c2cccc(Cl)c2-c2ccc3c(=O)n(-c4cncc5ccccc45)c(=O)[nH]c3c2)ccn1 [Example 328]", 7.81),
    ("CCn1cc(-c2cccc(Cl)c2-c2ccc3c(=O)n(-c4cncc5ccccc45)c(=O)[nH]c3c2)c(C)n1 [Example 275]", 7.63),
    ("O=c1[nH]c2cc(-c3ccccc3Cl)sc2c(=O)n1-c1cncc(OCC(F)(F)F)c1 [Example 381]", 5.30),
    ("O=c1[nH]c2cc(-c3cc(C4CC4)ccc3Cl)sc2c(=O)n1-c1cncc2ccccc12 [Example 351]", 7.71),
    ("Cc1ccc(-c2cc3[nH]c(=O)n(-c4cncc5ccccc45)c(=O)c3s2)c(Cl)n1 [Example 289]", 7.38),
    ("COc1cncc(-c2cccc(Cl)c2-c2ccc3c(=O)n(-c4cncc5ccccc45)c(=O)[nH]c3c2)c1 [Example 199]", 7.71),
    ("CC(C)c1cncc(-n2c(=O)[nH]c3cc(-c4ccccc4Cl)sc3c2=O)c1 [Example 376]", 4.36),
    ("CN(C)c1cncc(-n2c(=O)[nH]c3cc(-c4ccccc4Cl)sc3c2=O)c1 [Example 380]", 5.23),
    ("O=c1[nH]c2sc(-c3ccccc3Cl)nc2c(=O)n1-c1cncc2ccccc12 [Example 78]", 6.39),
    ("N#Cc1ccccc1-c1cnc2c(=O)n(-c3cncc4ccccc34)c(=O)[nH]c2c1 [Example 69]", 7.27),
    ("O=c1[nH]cc(-c2cc3[nH]c(=O)n(-c4cncc5ccccc45)c(=O)c3s2)c(=O)[nH]1 [Example 20]", 5.06),
    ("O=c1[nH]c2cc(-c3ccccc3Cl)sc2c(=O)n1-c1cnccc1C1CCOCC1 [Example 138]", 7.79),
    ("O=c1[nH]c2cc(-c3ccccc3Cl)ccc2c(=O)n1-c1cncc2ccccc12 [Example 73]", 6.80),
    ("N#Cc1cccc(-c2cccc(Cl)c2-c2ccc3c(=O)n(-c4cncc5ccccc45)c(=O)[nH]c3c2)c1 [Example 184]", 7.03),
    ("Cn1nc(-c2cccc(Cl)c2-c2ccc3c(=O)n(-c4cncc5ccccc45)c(=O)[nH]c3c2)c2ccccc21 [Example 263]", 7.05),
]
